System: 966289-007-R4-J1-PDC complex spheroid viability
EXPERIMENTAL PROTOCOL: Anticancer human tumor 966289-007-R4-J1-PDC patient-derived pancreatic adenocarcinoma cell line growth inhibition [RAS]
CONDITION: second compound 0.000949 µM; first compound 1 µM; stronger effect = lower value
ASSAY READOUT: viability, T/C

COMPOUND	OBS VALUE
C[C@@H](NC(=O)c1ncnc(N)c1Cl)c1ncc(C(=O)Nc2cc(C(F)(F)F)c(Cl)cn2)s1 + CCn1c(-c2cc(N3CCN(C)CC3)cnc2C(C)OC)c2c3cc(ccc31)-c1csc(n1)CC(NC(=O)C1CC1C)C(=O)N1CCCC(N1)C(=O)OCC(C)(C)C2	73%
NC1c2ccccc2OC12CCN(c1cnc3c(N4CCCc5ncccc54)n[nH]c3n1)CC2 (configuration not stated) + CCn1c(-c2cc(N3CCN(C)CC3)cnc2C(C)OC)c2c3cc(ccc31)-c1csc(n1)CC(NC(=O)C1CC1C)C(=O)N1CCCC(N1)C(=O)OCC(C)(C)C2	104%

###

Test system: 966289-007-R4-J1-PDC complex spheroid viability
EXPERIMENTAL PROTOCOL: Anticancer human tumor 966289-007-R4-J1-PDC cell line growth inhibition [RAS];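 also: spheroids exposed to agents for one week before readout; percent viability relative to DMSO vehicle control wells as 100%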
CONDITION: second compound 1 µM; first compound 0.316 µM; stronger effect = lower value
We label by threshold. Values of viability, T/C strictly beneath 60% are True. Values of 60% and up are False.

COMPOUND	GROUP LABEL
CC(C)NCC(C(=O)N1CCN(c2ncnc3c2C(C)CC3O)CC1)c1ccc(Cl)cc1 (stereo not given) + C#Cc1c(F)ccc2cc(O)cc(-c3ncc4c(N5CC6CCC(C5)N6)nc(OCC56CCCN5CC(F)C6)nc4c3F)c12	False
CC1(O)CCCC1n1c(=O)c(C(F)F)cc2cnc(NC3CCN(S(C)(=O)=O)CC3)nc21 (stereo not given) + C=CC(=O)N1CCN(c2nc(OCC3CCCN3C)nc3c(F)c(-c4nc(N)cc(C)c4C(F)(F)F)c(Cl)cc23)C(C)C1	True
O=C(c1ccc(F)c(F)c1Nc1ccc(I)cc1F)N1CC(O)([C@@H]2CCCCN2)C1 + C=CC(=O)N1CCN(c2nc(OCC3CCCN3C)nc3c(F)c(-c4nc(N)cc(C)c4C(F)(F)F)c(Cl)cc23)C(C)C1	False
NC1c2ccccc2OC12CCN(c1cnc3c(N4CCCc5ncccc54)n[nH]c3n1)CC2 (stereo not given) + C=CC(=O)N1CCN(c2nc(OCC3CCCN3C)nc3c(F)c(-c4nc(N)cc(C)c4C(F)(F)F)c(Cl)cc23)C(C)C1	False
CCN1CCN(Cc2ccc(Nc3ncc(F)c(-c4cc(F)c5nc(C)n(C(C)C)c5c4)n3)nc2)CC1 + C#Cc1c(F)ccc2cc(O)cc(-c3ncc4c(N5CC6CCC(C5)N6)nc(OCC56CCCN5CC(F)C6)nc4c3F)c12	False

###

Tested on: 966289-007-R4-J1-PDC complex spheroid viability
EXPERIMENTAL PROTOCOL: Anticancer human tumor 966289-007-R4-J1-PDC cell line growth inhibition [RAS]; active = viability on the fitted dose curve at most 10% of control; inactive = the rest;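 also: spheroids exposed to agents for one week before readout; percent viability relative to DMSO vehicle control wells as 100%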
CONDITION: second compound 0.00949 µM; first compound 0.0949 µM
Labels: 1 for active, -1 for inactive

COMPOUND	TGT	GROUP LABEL
CCc1c2c(nc3ccc(O)cc13)-c1cc3c(c(=O)n1C2)COC(=O)[C@]3(O)CC + CCn1c(-c2cccnc2C(C)OC)c2c3cc(ccc31)N1CCOC(CC(NC(=O)C(C(C)C)N(C)C(=O)C3(F)CCN(C(=O)C#CC(C)(C)N(C)C)CC3)C(=O)N3CCCC(N3)C(=O)OCC(C)(C)C2)C1	966289-007-R4-J1-PDC complex spheroid viability	1
CC1(C)CCC(Nc2ncc(C(F)(F)F)c(-c3c[nH]c4c(P(C)(C)=O)c(C#N)ccc34)n2)CN1 (centres undefined) + CCn1c(-c2cc(N3CCN(C)CC3)cnc2C(C)OC)c2c3cc(ccc31)-c1csc(n1)CC(NC(=O)C1CC1C)C(=O)N1CCCC(N1)C(=O)OCC(C)(C)C2	966289-007-R4-J1-PDC complex spheroid viability	-1
CCc1c2c(nc3ccc(O)cc13)-c1cc3c(c(=O)n1C2)COC(=O)[C@]3(O)CC + CCn1c(-c2cc(N3CCN(C)CC3)cnc2C(C)OC)c2c3cc(ccc31)-c1csc(n1)CC(NC(=O)C1CC1C)C(=O)N1CCCC(N1)C(=O)OCC(C)(C)C2	966289-007-R4-J1-PDC complex spheroid viability	1
CC1(C)CCC(Nc2ncc(C(F)(F)F)c(-c3c[nH]c4c(P(C)(C)=O)c(C#N)ccc34)n2)CN1 (centres undefined) + CCn1c(-c2cccnc2C(C)OC)c2c3cc(ccc31)N1CCOC(CC(NC(=O)C(C(C)C)N(C)C(=O)C3(F)CCN(C(=O)C#CC(C)(C)N(C)C)CC3)C(=O)N3CCCC(N3)C(=O)OCC(C)(C)C2)C1	966289-007-R4-J1-PDC complex spheroid viability	1
